Tested on: XF498
Assay: In vitro cytotoxic activity against XF 498 (CNS) using SRB (sulforhodamine B) assay
Type: functional, cell-based, Homo sapiens
Conditions: Homo sapiens, XF498; read-out: IC50
Checkbox rule: IC50 lower than 1 µg/mL = Condition met; IC50 not lower than 1 µg/mL = Condition not met.

Request: Does the reported IC50 of `O=C1C(Cl)=C(Nc2ccc(Br)cc2)C(=O)c2ncccc21` stay below 1 µg/mL?
Result: Condition not met

Request: Identify whether the molecule `O=C1C(Cl)=C(Nc2ccc(Cl)cc2)C(=O)c2cnccc21` records IC50 below 1 µg/mL.
Result: Condition not met

Request: Dear colleague, could you confirm whether IC50 of `N#Cc1ccc(NC2=C(Cl)C(=O)c3ccncc3C2=O)cc1` falls below 1 µg/mL? Thanks.
Result: Condition met

Request: Item `O=C1C(Cl)=C(Nc2ccc(Br)cc2)C(=O)c2cnccc21` : IC50 beneath 1 µg/mL, strictly?
Result: Condition not met

Request: Here's an entry: `O=C1C(Cl)=C(Nc2ccc(I)cc2)C(=O)c2cnccc21` . Is its IC50 below 1 µg/mL?
Result: Condition met

Request: IC50 under 1 µg/mL? Item: `Cc1ccc(NC2=C(Cl)C(=O)c3cccnc3C2=O)cc1`
Result: Condition not met

Request: Record `N#Cc1ccc(NC2=C(Cl)C(=O)c3cccnc3C2=O)cc1` : is its IC50 strictly below 1 µg/mL?
Result: Condition not met

Request: Problem: For the molecule `CCc1ccc(NC2=C(Cl)C(=O)c3ccncc3C2=O)cc1` , is IC50 under 1 µg/mL?
Result: Condition met

Request: is_below(IC50, 1 µg/mL) for `O=C1C(Cl)=C(Nc2ccc(I)cc2)C(=O)c2ncccc21` ?
Result: Condition not met

Request: A record lists `O=C1C(Cl)=C(Nc2ccc(CCO)cc2)C(=O)c2cnccc21` . Is its IC50 below 1 µg/mL?
Result: Condition met

Request: Hello, I'm reviewing records and need to know if IC50 of `COC1=C(N)C(=O)c2nc(-c3nc(C(=O)O)c(C)c(-c4ccc(OC)c(OC)c4O)c3N)ccc2C1=O` is below 1 µg/mL. Could you check?
Result: Condition met
